These entries and their values trace back to patent US12655104B2.

system: MDA-MB-436; assay: Alamar blue fluorescence viability (IC50), MDA-MB-436; type: cell-based; conditions: Homo sapiens, MDA-MB-436, 24 h, read-out: IC50 24 hr (μM)
As shown below, each of these molecules has a reported IC50 value.
Enter your answer as a number in µM; do not include the unit.

[
  {
    "Molecule": "O=C1Nc2c(C(F)(F)F)cccc2[C@@]1(c1ccc(O)cc1)c1ccc(OC(F)(F)F)cc1 [ErSO, reference compound]",
    "Unit Symbol": "µM",
    "IC50": 22
  }
]

Then there is this molecule:
Ask: Quick one: IC50 of O=C1Nc2c(C(F)(F)F)cccc2[C@@]1(c1ccc(O)cc1)N1CCC(F)(F)CC1 (single isomer, unassigned) ?
Reply: 64

---

Test: Pharmacokinetic (PK) studies in mice
Format: in vivo
Conditions: female, CD-1, mouse, in vivo, po, read-out: oral availability F %
Protocol: Pharmacokinetic (PK) Studies. […] Mice were then sacrificed in cohorts of 3 at time points (#, #, #). Blood was collected, centrifuged, and plasma separated for quantification of test compound utilizing LC-MS/MS (UIUC Metabolomics Center, Urbana, IL.). Determined compound concentration was then analyzed using non-linear regression programing (WinNonlin) and pharmacokinetic parameters estimated.
Parameter Measured: bioavailability (%)
Enter your answer as a number in %; do not include the unit.

Ask: Quick one: bioavailability of O=C1Nc2c(C(F)(F)F)cccc2[C@@]1(c1ccc(O)cc1)N1CCC(F)(F)CC1 (single isomer, unassigned) ?
Reply: 6

---

test system: HCT-116; experiment: Alamar blue fluorescence viability (IC50), HCT-116; format: cell-based; conditions: Average Fold Change between 24/72 hr IC50 values for MCF-7 and HCT-116
Parameter Measured: Fold Change
Answer with a bare number; do not write a unit.

[
  {
    "Compound": "O=C1Nc2c(C(F)(F)F)cccc2C1(c1ccc(O)cc1)N1CCC(F)(F)C1 (stereo not shown)",
    "Measurement Target": "HCT-116",
    "Reported Value": 909
  },
  {
    "Compound": "O=C1Nc2c(C(F)(F)F)cccc2C1(c1ccc(O)cc1)N1CC(F)(F)C(F)(F)C1 (stereo not shown) [drawing 36]",
    "Measurement Target": "HCT-116",
    "Reported Value": 3750
  },
  {
    "Compound": "O=C1Nc2c(C(F)(F)F)cccc2C1(c1ccc(O)cc1)N1CCCC(F)(F)C1 (stereo not shown)",
    "Measurement Target": "HCT-116",
    "Reported Value": 636
  }
]

Then there is this compound:
Ask: Quick one: Fold Change of O=C1Nc2c(C(F)(F)F)cccc2[C@@]1(c1ccc(O)cc1)N1CCC(F)(F)CC1 (single isomer, unassigned) ?
Reply: 3235

---

experiment: Maximum tolerated dose (MTD) in rats; format: in vivo; conditions: Sprague Dawley, in vivo, iv; Rat, I.V., single dose; read-out: MTD
Parameter Measured: MTD

Ask: Quick one: MTD of O=C1Nc2c(C(F)(F)F)cccc2[C@@]1(c1ccc(O)cc1)N1CCC(F)(F)CC1 (single isomer, unassigned) [ErSO-DFP] ?
Reply: > 50 mg/kg
